- Target: Chymotrypsin, from human pancreas (Homo sapiens, UniProt P17538)
- Sequence (P17538 19-263): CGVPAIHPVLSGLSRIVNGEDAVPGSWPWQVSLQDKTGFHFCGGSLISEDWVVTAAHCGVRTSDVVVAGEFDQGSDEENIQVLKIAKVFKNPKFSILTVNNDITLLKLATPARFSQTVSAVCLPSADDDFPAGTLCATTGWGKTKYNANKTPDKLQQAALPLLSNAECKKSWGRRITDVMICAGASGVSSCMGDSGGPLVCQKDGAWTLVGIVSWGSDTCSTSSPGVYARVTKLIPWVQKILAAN
- Test Summary: Enzymatic assay, chymotrypsin
- Condition Description: at 100 μM
Where a SMILES comes first, the peptide text is derived from it.
Test Readout: Chymotrypsin at 100 μM % (%)
API: value field is a number in %; no unit string.

- CCCC[C@@H]1NC(=O)[C@@H]2CCCN2C(=O)[C@H]2CCCN2C(=O)[C@H](Cc2ccccc2)NC(=O)[C@@H]2CSSC[C@H](NC1=O)C(=O)N[C@@H]([C@@H](C)O)C(=O)N[C@@H](C)C(=O)N[C@@H](CO)C(=O)N[C@@H]([C@@H](C)CC)C(=O)N1CCC[C@H]1C(=O)N1CCC[C@H]1C(=O)N[C@@H](CCC(N)=O)C(=O)N2 [Ex. 137] (HELM PEPTIDE1{[Nle].C.T.A.S.I.P.P.Q.C.F.[dP].P}$PEPTIDE1,PEPTIDE1,2:R3-10:R3|PEPTIDE1,PEPTIDE1,1:R1-13:R2$$$V2.0): 68.7

Query: # return Chymotrypsin at 100 μM % of CC[C@H](C)[C@@H]1NC(=O)[C@@H]2CCCN2C(=O)[C@@H]2CCCN2C(=O)[C@H](CC(=O)O)NC(=O)[C@H](CO)NC(=O)[C@H](CCCCN)NC(=O)[C@H]([C@@H](C)O)NC(=O)[C@@H]2CSSC[C@H](NC1=O)C(=O)N[C@@H](CC(=O)O)C(=O)N1CCC[C@@H]1C(=O)N1CCC[C@H]1C(=O)N[C@@H](Cc1ccccc1)C(=O)N2 [Ex. 2] (HELM PEPTIDE1{F.C.T.K.S.D.P.P.I.C.D.[dP].P}$PEPTIDE1,PEPTIDE1,2:R3-10:R3|PEPTIDE1,PEPTIDE1,1:R1-13:R2$$$V2.0) (system: Chymotrypsin, from human pancreas (Homo sapiens, UniProt P17538))
Response: 2.9

Query: Send back Chymotrypsin, from human pancreas (Homo sapiens, UniProt P17538) Chymotrypsin at 100 μM % of CCCC[C@@H]1NC(=O)[C@H]([C@@H](C)O)NC(=O)[C@@H]2CSSC[C@H](NC(=O)[C@H]([C@@H](C)CC)NC(=O)[C@@H]3CCCN3C(=O)[C@@H]3CCCN3C(=O)[C@H](CC(=O)O)NC(=O)[C@H](CO)NC1=O)C(=O)N[C@@H](Cc1ccc(O)cc1)C(=O)N1CCC[C@@H]1C(=O)N1CCC[C@H]1C(=O)N[C@@H](Cc1ccccc1)C(=O)N2 [Ex. 23] (HELM PEPTIDE1{F.C.T.[Nle].S.D.P.P.I.C.Y.[dP].P}$PEPTIDE1,PEPTIDE1,2:R3-10:R3|PEPTIDE1,PEPTIDE1,1:R1-13:R2$$$V2.0) only.
Response: 4

Query: Please report Chymotrypsin at 100 μM % with Chymotrypsin, from human pancreas (Homo sapiens, UniProt P17538) for item CCCC[C@@H]1NC(=O)[C@@H]2CCCN2C(=O)[C@H]2CCCN2C(=O)[C@H](Cc2ccc(O)cc2)NC(=O)[C@@H]2CSSC[C@H](NC1=O)C(=O)N[C@@H]([C@@H](C)O)C(=O)N[C@@H](C)C(=O)N[C@@H](CO)C(=O)N[C@@H]([C@@H](C)CC)C(=O)N1CCC[C@H]1C(=O)N1CCC[C@H]1C(=O)N[C@@H](CCC(N)=O)C(=O)N2 [Ex. 179] (HELM PEPTIDE1{[Nle].C.T.A.S.I.P.P.Q.C.Y.[dP].P}$PEPTIDE1,PEPTIDE1,2:R3-10:R3|PEPTIDE1,PEPTIDE1,1:R1-13:R2$$$V2.0) .
Response: 76.0

Query: Look up Chymotrypsin, from human pancreas (Homo sapiens, UniProt P17538) data: Chymotrypsin at 100 μM % of C[C@@H]1NC(=O)[C@H]([C@@H](C)O)NC(=O)[C@@H]2CSSC[C@H](NC(=O)[C@H](CCC(N)=O)NC(=O)[C@@H]3CCCN3C(=O)[C@@H]3CCCN3C(=O)[C@H](CC3CCCCC3)NC(=O)[C@H](CO)NC1=O)C(=O)N[C@@H](Cc1ccccc1)C(=O)N1CCC[C@@H]1C(=O)N1CCC[C@H]1C(=O)N[C@@H](CCc1ccccc1)C(=O)N2 [Ex. 155] (HELM PEPTIDE1{[O=C([C@H](CCc1ccccc1)N[*:1])[*:2]].C.T.A.S.[Cha].P.P.Q.C.F.[dP].P}$PEPTIDE1,PEPTIDE1,2:R3-10:R3|PEPTIDE1,PEPTIDE1,1:R1-13:R2$$$V2.0) , then report it.
Response: 83

Query: Provide Chymotrypsin at 100 μM %, system Chymotrypsin, from human pancreas (Homo sapiens, UniProt P17538), entry C[C@@H]1NC(=O)[C@H]([C@@H](C)O)NC(=O)[C@@H]2CSSC[C@H](NC(=O)[C@H](CCC(N)=O)NC(=O)[C@@H]3CCCN3C(=O)[C@@H]3CCCN3C(=O)[C@H](CC3CCCCC3)NC(=O)[C@H](CO)NC1=O)C(=O)N[C@@H](CCC(N)=O)C(=O)N1CCC[C@@H]1C(=O)N1CCC[C@H]1C(=O)N[C@@H](CCc1ccccc1)C(=O)N2 [Ex. 158] (HELM PEPTIDE1{[O=C([C@H](CCc1ccccc1)N[*:1])[*:2]].C.T.A.S.[Cha].P.P.Q.C.Q.[dP].P}$PEPTIDE1,PEPTIDE1,2:R3-10:R3|PEPTIDE1,PEPTIDE1,1:R1-13:R2$$$V2.0)
Response: 93
